# methodNotes: fluconazole-exposed Candida albicans growth modulators – fluorescence, retest, confirmation (AID 2467)
# Assay type: functional, cell-based
Calls of active or inactive are those of the source. Cut-off read from the data, not from the text of the source: actives have a measured EC50 and inactives only a lower limit.
measurementKind: EC50

// below: answered molecules
CCc1ccccc1N=C(S)NNC(=O)c1ccccc1Cl    1.93 µM (active)
COc1ccc(-c2cc(-c3c(O)c(OC)c4occc4c3OC)[nH]n2)cc1OC    > 38 µM (not active)
O=C(NNc1cccc(Cl)c1)c1cccnc1Cl    > 38 µM (not active)
COc1cccc(C(=O)Oc2c(CN3CCOCC3)cc(Cl)c3cccnc23)c1    1.83 µM (active)

Please examine the following record next.
# input // query EC50 value for entry COCCNC(=O)NC12CC3CC(CC(C3)C1)C2
# output > 38 µM (not active)

Origin of the recorded values: ChEMBL document CHEMBL1201862
